- TARGET_ENTITY: T1, biotinylated recombinant human trimeric ARG2 enzyme (Avi-huARG2-His10) (human, UniProt P78540 23-354, biotinylated)
- T1 construct: also called avi-Arg2-His10; bio-ARG2
- T1 chain: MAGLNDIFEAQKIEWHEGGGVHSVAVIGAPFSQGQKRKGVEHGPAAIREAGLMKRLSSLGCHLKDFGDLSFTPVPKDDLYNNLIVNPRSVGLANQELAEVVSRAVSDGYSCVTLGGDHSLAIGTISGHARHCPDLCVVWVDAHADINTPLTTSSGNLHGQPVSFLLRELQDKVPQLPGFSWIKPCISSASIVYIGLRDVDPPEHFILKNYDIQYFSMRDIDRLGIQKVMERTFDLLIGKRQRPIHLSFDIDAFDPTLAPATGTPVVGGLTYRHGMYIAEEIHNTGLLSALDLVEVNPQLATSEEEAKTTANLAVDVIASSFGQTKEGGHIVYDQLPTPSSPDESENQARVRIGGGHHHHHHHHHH
- TEST_DETAILS: BLI (OctetRED), biotinylated ARG2 on streptavidin, Fab as analyte
READOUT_NAME: koff (s⁻¹)

BINDER	READOUT_NAME	READOUT_UNITS	OBS_VALUE
C0021096 Fab (Fab, V domains shown, Human Fab) VH: EVQLLESGGGLVQPGGSLRLSCAASGFTFSSYAMSWVRQAPGKGLEWVSAISGYSGYYADSVKGRFTISRDNSKNTLYLQMNSLRAEDTAVYYCARLRADLGLYMDLWGRGTLVTVSS VL: QSVLTQPPSVSAAPGQKVTISCSGSSSNIGNHYVSWYQQLPGTAPKLLIYNTERRMSGIPDRFSGSKSGTSATLGITGLQTGDEADYYCGTWDSSLSALVFGGGTKLTVL	koff	s⁻¹	0.00154
